Sequence of the target: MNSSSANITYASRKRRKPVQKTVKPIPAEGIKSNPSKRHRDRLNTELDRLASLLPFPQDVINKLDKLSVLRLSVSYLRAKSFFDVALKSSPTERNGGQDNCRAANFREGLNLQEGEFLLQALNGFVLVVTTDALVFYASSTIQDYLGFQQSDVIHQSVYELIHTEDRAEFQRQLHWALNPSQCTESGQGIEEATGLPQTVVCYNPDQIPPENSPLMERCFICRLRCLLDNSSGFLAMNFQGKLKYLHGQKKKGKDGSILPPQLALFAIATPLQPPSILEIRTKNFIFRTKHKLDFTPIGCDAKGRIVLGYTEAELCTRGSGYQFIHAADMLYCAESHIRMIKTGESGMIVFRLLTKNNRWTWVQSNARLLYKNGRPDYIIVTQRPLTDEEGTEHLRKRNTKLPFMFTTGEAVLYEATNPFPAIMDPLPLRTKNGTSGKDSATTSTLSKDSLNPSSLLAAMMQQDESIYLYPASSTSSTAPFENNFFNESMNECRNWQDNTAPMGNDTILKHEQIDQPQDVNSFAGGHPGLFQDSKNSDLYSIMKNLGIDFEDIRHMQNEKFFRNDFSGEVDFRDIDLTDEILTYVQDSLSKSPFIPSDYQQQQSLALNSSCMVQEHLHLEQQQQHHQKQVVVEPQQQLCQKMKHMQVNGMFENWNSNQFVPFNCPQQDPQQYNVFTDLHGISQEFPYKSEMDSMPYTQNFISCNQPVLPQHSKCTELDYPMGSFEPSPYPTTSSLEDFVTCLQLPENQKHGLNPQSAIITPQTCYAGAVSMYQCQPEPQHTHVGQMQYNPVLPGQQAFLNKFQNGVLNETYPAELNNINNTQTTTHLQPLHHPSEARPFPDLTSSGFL
# pIC50 per record follows
Please note pIC50 is a logarithmic value: minus log10 of concentration in mol/L. Answer with that number alone.

1) COC(=O)c1ccccc1-c1cnn2c(NCCOCCO)cc(-c3ccccc3)nc12	6.44

IN: State its pIC50: COc1ccccc1-c1cnn2c(NCCOCCO)cc(-c3ccccc3)nc12
OUT: 6.50
